assay target: recombinant human PAI-1 (Homo sapiens)
Construct: purchased Molecular Innovations, Inc
Sequence (P05121 24-402): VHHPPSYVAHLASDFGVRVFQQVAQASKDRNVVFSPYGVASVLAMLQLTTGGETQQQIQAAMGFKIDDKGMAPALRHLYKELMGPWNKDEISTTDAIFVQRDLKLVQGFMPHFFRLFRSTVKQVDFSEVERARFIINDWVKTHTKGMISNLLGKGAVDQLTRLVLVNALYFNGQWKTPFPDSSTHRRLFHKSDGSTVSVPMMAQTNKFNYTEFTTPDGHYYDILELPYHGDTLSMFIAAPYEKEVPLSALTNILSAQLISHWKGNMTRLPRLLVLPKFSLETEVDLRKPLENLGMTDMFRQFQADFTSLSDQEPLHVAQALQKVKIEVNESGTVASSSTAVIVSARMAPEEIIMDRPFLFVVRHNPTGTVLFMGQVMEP
assay text: Test Example 2: human PAI-1 inhibitory activity (tPA fluorogenic substrate, pH 7.4 HEPES buffer)
Format: biochemical
experimental parameters: human PAI-1; compound concentration 1 μM
property: Inhibition Rate of PAI-1 Activity (%)

Consider the worked cases shown below.
What measured Inhibition Rate of PAI-1 Activity (%) goes with "O=C(O)C(=O)N(CCCCc1ccccc1)c1cc(-c2ccc(OC(F)(F)F)cc2)ccc1OCCCCCO" ? 60

Quick check: Inhibition Rate of PAI-1 Activity (%) of "CCCCCOc1ccc(-c2ccc(C)cc2)cc1N(CCCCc1ccccc1)C(=O)C(=O)O" ? 93

I have this molecule here, "CCCCCOc1cc(-c2ccc(OC(F)(F)F)cc2)ccc1CN(C(=O)C(=O)O)c1ccc(C(C)(C)C)cc1" , and I need its recorded Inhibition Rate of PAI-1 Activity (%). 86

Look up Inhibition Rate of PAI-1 Activity (%): CCCCCCOc1cc(-c2ccc(OC(F)(F)F)cc2)ccc1OC(CCCCCC)C(=O)O (stereo not shown) 97

What value of Inhibition Rate of PAI-1 Activity (%) has been recorded for this entry: "CC(C)(C)c1ccc(Oc2cc(-c3ccccc3OC(F)(F)F)ccc2/C=C/C(=O)O)cc1" 88

P = CC(C)(C)c1ccc(Sc2cc(-c3ccc(OC(F)(F)F)cc3)ccc2C(=O)O)cc1
Q = CC(C)c1ccccc1Oc1cc(-c2ccc(OC(F)(F)F)cc2)ccc1CCC(=O)O
Please choose the item with the lower Inhibition Rate of PAI-1 Activity (%) value from this pair: P and Q State the label of the item chosen. Q
(Q: 66%, P: 97%)

---

assay target: recombinant human PAI-1 (Homo sapiens)
Construct: purchased Molecular Innovations, Inc
assay text: Test Example 2: human PAI-1 inhibitory activity (tPA fluorogenic substrate, pH 7.4 HEPES buffer)
Assay type: biochemical
experimental parameters: human PAI-1; calculated from the inhibition rates
pIC50: −log10 of the molar value.
property: pIC50

1 = Cc1cccc(-c2ccc(Oc3ccc(C(C)(C)C)cc3)c(OCC(=O)O)c2)c1
2 = CC(C)(C)c1ccc(Oc2cc(-c3cccc(OC(F)(F)F)c3)ccc2OCC(=O)O)cc1
Consider entries 1 and 2 . Which has the numerically lower pIC50? Which one? Tell me its label. 1

P = CC(C)(C)c1ccc(Oc2cc(-c3ccc(OC(F)(F)F)cc3)ccc2CC(=O)O)cc1
Q = CCCCC(Oc1cc(-c2ccc(OC(F)(F)F)cc2)ccc1OCCCCc1ccc(F)cc1)C(=O)O (centres unmarked)
Could you tell me which of these two has the smaller pIC50 figure? First: P Second: Q Give the label of your selection. P

---

assay target: recombinant human PAI-1 (Homo sapiens)
Construct: purchased Molecular Innovations, Inc
assay text: Test Example 1: human PAI-1 inhibitory activity (tPA fluorogenic substrate, pH 7.5 Tris buffer)
Type: biochemical
experimental parameters: Compound Concentration 25 μM; Tris buffer
property: Inhibition Rate of PAI-1 Activity (%)

I would be grateful if you could share the reported Inhibition Rate of PAI-1 Activity (%) for Cc1ccc(COc2ccc(-c3ccc(OC(F)(F)F)cc3)cc2CCC(=O)O)cc1 [Compound 61] . 97

Entry CN(c1ccc(OC(F)(F)F)cc1)c1ccc(OCc2ccc(C(C)(C)C)cc2)c(CCC(=O)O)c1 [Compound 417] : reported Inhibition Rate of PAI-1 Activity (%) = ? 98

Fill in the blank: the reported Inhibition Rate of PAI-1 Activity (%) of CC(C)(C)c1ccc(CN(C(=O)C(=O)O)c2ccc(OCc3ccc(OC(F)(F)F)cc3)c(OCc3ccc(OC(F)(F)F)cc3)c2)cc1 [Compound 622] is ____. 88

Fill in: Inhibition Rate of PAI-1 Activity (%) of CCCOc1ccc(N(CCCc2ccccc2)C(=O)C(=O)O)c(-c2ccc(OC(F)(F)F)cc2)c1 [Compound 232] is ___ 96
